Overview of recorded pest or weed control at 8966.8 g/ha for various compounds
# Test system: Cotton (CT)
# EXPERIMENTAL_DETAILS: Post-emergence herbicide test
# Assay type: in vivo, Gossypium hirsutum var. DPL smooth leaf
# CONDITION_PARAMETERS: Gossypium hirsutum, post-emergence, 336 h; 8 lb/acre; two weeks after treatment
A bare number is not enough; add the unit after it.

See these solved cases before continuing.
[
  {
    "COMPOUND": "CNC(=O)Nc1nnc(C(F)(F)Cl)s1 [Example 57]",
    "READOUT_VALUE": "90%"
  },
  {
    "COMPOUND": "CNC(=O)Nc1nnc(SC)s1 [Example 26]",
    "READOUT_VALUE": "90%"
  }
]

Lab note: next compound to report on.
Exercise: Would you mind telling me what pest or weed control at 8966.8 g/ha value was observed for CN(C)C(=O)Nc1nnc(C(F)(F)F)s1 [Example 2] ?
Solution: 90%

----------
Overview of recorded pest or weed control at 8966.8 g/ha for various compounds
# Test system: Turnip (TP)
# EXPERIMENTAL_DETAILS: Post-emergence herbicide test
# Format: in vivo, Brassica sp.
# CONDITION_PARAMETERS: Brassica rapa, post-emergence, 336 h; 8 lb/acre; two weeks after treatment

See these solved cases before continuing.
[
  {
    "SMILES_INPUT": "CNC(=O)Nc1nnc(-c2ccccc2Cl)s1",
    "MEASURED_ON": "Turnip (TP)",
    "pest or weed control at 8966.8 g/ha": "80%"
  },
  {
    "SMILES_INPUT": "CCc1nnc(NC(=O)NC)s1",
    "MEASURED_ON": "Turnip (TP)",
    "pest or weed control at 8966.8 g/ha": "100%"
  },
  {
    "SMILES_INPUT": "CNC(=O)Nc1nnc(-c2ccc(C)cc2)s1",
    "MEASURED_ON": "Turnip (TP)",
    "pest or weed control at 8966.8 g/ha": "60%"
  },
  {
    "SMILES_INPUT": "CNC(=O)Nc1nnc(C(C)(C)C)s1",
    "MEASURED_ON": "Turnip (TP)",
    "pest or weed control at 8966.8 g/ha": "100%"
  }
]

Lab note: next compound to report on.
Exercise: Would you mind telling me what pest or weed control at 8966.8 g/ha value was observed for CNC(=O)Nc1nnc(C(F)(F)Cl)s1 ?
Solution: 100%

----------
# System: Johnson grass (JG)
# EXPERIMENTAL_DETAILS: Post-emergence herbicide test
# Type: in vivo, Sorgum helepense
# CONDITION_PARAMETERS: Sorghum halepense, 336 h, 8 lb/acre, two weeks after treatment
EXPERIMENTAL_ENDPOINT: pest or weed control at 8966.8 g/ha (%)
Give a bare numeral; the unit % is implied.

[
  {
    "SMILES_INPUT": "CNC(=O)Nc1nnc(-c2ccc(C)cc2)s1",
    "READOUT_VALUE": 30
  },
  {
    "SMILES_INPUT": "O=C(Nc1ccc(Cl)cc1)Nc1nnc(C(F)(F)F)s1",
    "READOUT_VALUE": 20
  },
  {
    "SMILES_INPUT": "CCSc1nnc(NC(=O)NC)s1",
    "READOUT_VALUE": 90
  }
]

Exercise: Would you mind telling me what pest or weed control at 8966.8 g/ha value was observed for CCc1nnc(NC(=O)NC)s1 ?
Solution: 20

Exercise: Moving on to the next compound: CNC(=O)Nc1nnc(CC(C)C)s1
Solution: 30

Exercise: Moving on to the next compound: CNC(=O)Nc1nnc(C(C)(C)C)s1
Solution: 100

Exercise: Moving on to the next compound: CNC(=O)Nc1nnc(S(C)(=O)=O)s1
Solution: 40

Exercise: Moving on to the next compound: CCSCCSc1nnc(NC(=O)NC)s1
Solution: 60

----------
Overview of recorded pest or weed control at 8966.8 g/ha for various compounds
# System: Bean (BN)
# EXPERIMENTAL_DETAILS: Pre-emergence herbicide test
# Format: in vivo, Phaseolus vulgaris var. Black Valentine
# CONDITION_PARAMETERS: Phaseolus vulgaris, 336 h, 8 lb/acre, two weeks after treatment
# Experimental: Bean (BN)--Phaseolus vulgaris var. Black Valentine All crop and weed species were planted individually in 3' plastic pots containing potting soil. Four seeds each of corn, cotton, and snapbeans were seeded to a depth equal to the diameter of the seed. All other species were surface seeded and sprinkled with screened soil in an amount sufficient to cover the seed. Immediately after planting, all pots were watered by sub-irrigation in greenhouse trays. […]
Give a bare numeral; the unit % is implied.

See these solved cases before continuing.
[
  {
    "SMILES_INPUT": "CN(C)C(=O)Nc1nnc(C(F)(F)F)s1",
    "pest or weed control at 8966.8 g/ha [%]": 80
  },
  {
    "SMILES_INPUT": "CCCNC(=O)Nc1nnc(C(F)(F)F)s1",
    "pest or weed control at 8966.8 g/ha [%]": 80
  },
  {
    "SMILES_INPUT": "CCN(C(=O)NC)c1nnc(C(F)(F)F)s1",
    "pest or weed control at 8966.8 g/ha [%]": 90
  },
  {
    "SMILES_INPUT": "CCc1nnc(NC(=O)NC)s1",
    "pest or weed control at 8966.8 g/ha [%]": 90
  }
]

Exercise: # returns recorded pest or weed control at 8966.8 g/ha (system: Bean (BN)) for CNC(=O)Nc1nnc(-c2ccccc2Cl)s1
Solution: 100

Exercise: Moving on to the next compound: CCSCCSc1nnc(NC(=O)NC)s1
Solution: 100

Exercise: Moving on to the next compound: O=C(Nc1ccccc1)Nc1nnc(C(F)(F)F)s1
Solution: 100

----------
# Tested on: Turnip (TP)
# EXPERIMENTAL_DETAILS: Post-emergence herbicide test
# Type: in vivo, Brassica sp.
# CONDITION_PARAMETERS: Brassica rapa, post-emergence, 336 h; 8 lb/acre; two weeks after treatment
Overview of recorded pest or weed control at 8966.8 g/ha for various compounds
Give a bare numeral; the unit % is implied.

See these solved cases before continuing.
[
  {
    "COMPOUND": "CNC(=O)Nc1nnc(-c2ccccc2)s1 [Example 34]",
    "pest or weed control at 8966.8 g/ha [%]": 40
  },
  {
    "COMPOUND": "CCSc1nnc(NC(=O)NC)s1 [Example 32]",
    "pest or weed control at 8966.8 g/ha [%]": 90
  },
  {
    "COMPOUND": "CNC(=O)Nc1nncs1 [Example 35]",
    "pest or weed control at 8966.8 g/ha [%]": 20
  },
  {
    "COMPOUND": "CCNC(=O)Nc1nnc(C(F)(F)F)s1 [Example 9]",
    "pest or weed control at 8966.8 g/ha [%]": 60
  },
  {
    "COMPOUND": "CCN(C(=O)NC)c1nnc(C(F)(F)F)s1 [Example 37]",
    "pest or weed control at 8966.8 g/ha [%]": 100
  }
]

Lab note: next compound to report on.
Exercise: Would you mind telling me what pest or weed control at 8966.8 g/ha value was observed for C=CCNC(=O)Nc1nnc(C(F)(F)F)s1 [Example 12] ?
Solution: 70

----------
# System: Johnson grass (JG)
# EXPERIMENTAL_DETAILS: Post-emergence herbicide test
# Type: in vivo, Sorgum helepense
# CONDITION_PARAMETERS: Sorghum halepense, 336 h, 8 lb/acre, two weeks after treatment
# Protocol: Johnson grass (JG)--Sorgum helepense All crop and weed species were planted individually in 3' plastic pots containing potting soil. Four seeds each of corn, cotton, and snapbeans were seeded to a depth equal to the diameter of the seed. All other species were surface seeded and sprinkled with screened soil in an amount sufficient to cover the seed. Immediately after planting, all pots were watered by sub-irrigation in greenhouse trays. […]
Overview of recorded pest or weed control at 8966.8 g/ha for various compounds
Give a bare numeral; the unit % is implied.

See these solved cases before continuing.
[
  {
    "SMILES_INPUT": "CNC(=O)Nc1nnc(-c2ccc(Cl)cc2Cl)s1",
    "pest or weed control at 8966.8 g/ha (%)": 30
  },
  {
    "SMILES_INPUT": "CNC(=O)Nc1nnc(-c2ccccc2Cl)s1",
    "pest or weed control at 8966.8 g/ha (%)": 40
  },
  {
    "SMILES_INPUT": "CSc1nnc(N(C)C(=O)N(C)C)s1",
    "pest or weed control at 8966.8 g/ha (%)": 90
  },
  {
    "SMILES_INPUT": "CNC(=O)Nc1nnc(COC)s1",
    "pest or weed control at 8966.8 g/ha (%)": 30
  },
  {
    "SMILES_INPUT": "Cc1nnc(NC(=O)N(C)C)s1",
    "pest or weed control at 8966.8 g/ha (%)": 20
  }
]

Exercise: Would you mind telling me what pest or weed control at 8966.8 g/ha value was observed for CNC(=O)N(C)c1nnc(SC)s1 ?
Solution: 80

Exercise: Moving on to the next compound: CNC(=O)N(C)c1nnc(C(C)(C)C)s1
Solution: 100

Exercise: Moving on to the next compound: CNC(=O)Nc1nnc(SCc2ccc(Cl)cc2)s1
Solution: 10

Exercise: Moving on to the next compound: CN(C)C(=O)Nc1nnc(C(F)(F)F)s1
Solution: 40

Exercise: Moving on to the next compound: CCCSc1nnc(N(C)C(=O)NC)s1
Solution: 100

Exercise: Moving on to the next compound: CCNC(=O)Nc1nnc(SC)s1
Solution: 20

Exercise: Moving on to the next compound: CNC(=O)Nc1nnc(C(F)(F)F)s1
Solution: 100
